assay_protocol: FRG1 promoter luciferase signal modulators, primary screen, FRG1 inhibition for FSHD, cell-based, C2C12 myotubes, firefly/Renilla luciferase, luminescence (AID 1084)
reported_conditions: higher = more signal, called active from +8 up or from −8 down
Label scheme for z-score: lower than -0.6 is rule not met, -0.6 and above is rule met.

Some solved cases for reference:
CCCCCN1CC=CC23O[C@@H]4/C=C\CCCOC(=O)C4[C@H]2C(=O)N(CCCO)[C@@H]3C1=O (stereo partly specified)    rule met
CCCC[C@H]1OB(O)C[C@H]2C1=C(COc1ccccc1)C[C@H]1C(=O)N(C)C(=O)[C@H]12    rule met
CC(C)C(=C=CC[C@@H](O)c1ccccc1OCCO)CCO    rule not met
O=C1NC(=O)C2C1C=CC(C(O)Cc1ccccc1)N2Nc1ccc(Cl)cc1Cl (stereo unspecified)    rule met
O=C1[C@H]2C=C(Br)[C@H](C[C@@H]2OCCCCO)[C@@]12CO2    rule not met
CCOC(=O)C1=CCC(c2ccc(C)cc2)N(S(=O)(=O)c2ccc(C)cc2)C1 (stereo unspecified)    rule not met
C=CCNC(=O)[C@H]1[C@@H]2C(=O)O[C@@H](c3ccccc3)[C@@H](c3ccccc3)N2[C@@H](c2ccc(OCCO)cc2)[C@]12C(=O)Nc1ccc(C#CC3=CCCCC3)cc12    rule met
C=C(C)C1C(=C)CN([C@H](CO)c2ccccc2)C1=O (stereo partly specified)    rule met
CCCCC(=C=CC[C@@H](O)c1ccccc1OCCO)CCO    rule met
C=C(COC)/C(=C/C[C@@H](OC(C)=O)c1ccc(OCCO)cc1)c1cc(C(=O)OC)ccc1OC    rule met

Does the compound C=CC[C@]12N=C(c3ccc(OCCCO)cc3)O[C@H]1c1ccccc1N(Cc1ccccc1)C2=O have recorded z-score that is -0.6 or more? rule not met

Repeat with COc1ccc(C(=O)Nc2ccc(CN3C(=O)[C@@]4(O[C@@H](CCO)[C@H]([Si](C)(C)c5ccc(OC)cc5)[C@H]4C)c4ccccc43)cc2)cc1 rule not met

Next: C=CCOC(=O)[C@@H]1[C@H]2C(=O)O[C@H](c3ccccc3)[C@H](c3ccccc3)N2[C@H](c2ccc(OCCOC(=O)[C@@H]3C[C@@H]4C(=O)N5CCC[C@H]5C(=O)N4[C@@H]3c3ccc(O)cc3)cc2)[C@@]12C(=O)Nc1ccc(I)cc12 rule not met

Check [N-]=[N+]=Nc1ccccc1C[C@]1(C(=O)NCC(O)CO)N=C(c2ccc(OCCCO)cc2)O[C@H]1c1ccccc1N=[N+]=[N-] (stereo partly specified) too. rule met

// repeat for O=C(O)[C@@]1(CCS(=O)(=O)c2ccccc2)COC(c2ccc(OCCCO)cc2)=N1 and report rule met

What do you have for COc1ccc([Si](C)(C)[C@H]2[C@H](CCO)O[C@@]3(C(=O)N(Cc4ccc(N5C(=O)COc6ccccc65)cc4)c4ccccc43)[C@@H]2C)cc1 ? rule not met

###

assay_protocol: E. coli DRC41 culture turbidity changes, primary screen, E. coli filamentation inducer project, strain DRC41, OD650, 48 h (AID 1152);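 also: E. coli MC1000 strain DRC41 lacking acrAB efflux pump and sulA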
reported_conditions: E. coli DRC41 (acrAB sulA), higher = more signal, called active from +8 up or from −8 down
Measured z-score values are reported for all entries that follow.
Give a plain numeric answer without units written out.

Recorded results for 6 molecules are shown here.
COCCCNC(=O)C1N=C(c2ccc(OCCCO)cc2)N(c2ccccc2)O1 (configuration not stated)    0.768
N#Cc1ccc(NN2C(C(O)c3c(F)cccc3Cl)C=CC3C(=O)N(c4ccccc4)C(=O)C32)cc1 (configuration not stated)    -0.857
COc1cc2c(cc1OC)CN(C(=O)[C@@H]1[C@H]3C(=O)O[C@H](c4ccccc4)[C@H](c4ccccc4)N3[C@H](c3ccc(O)cc3)[C@@]13C(=O)Nc1ccc(C#CC4(O)CCCCCC4)cc13)CC2    0.384
C=CCOC(=O)[C@H]1[C@@H]2C(=O)O[C@@H](c3ccccc3)[C@@H](c3ccccc3)N2[C@@H](c2ccc(OCCOC(=O)[C@H]3C[C@H]4C(=O)N5CCC[C@H]5C(=O)N4[C@H]3c3ccc(O)cc3)cc2)[C@]12C(=O)Nc1ccccc12    -0.827
COc1cc2c(cc1O)C=[N+](Cc1cccc(OC(F)(F)F)c1)CC2    0.272
CN1C(=O)C2C=CC(C(O)C3CCCCC3)N(Nc3ccc([N+](=O)[O-])cc3[N+](=O)[O-])C2C1=O (configuration not stated)    -1.06

Proceed to the following item.
Please give the measured z-score for this molecule: CCCC[C@@H]1C[C@H]1[C@@H](NC(=O)c1ccco1)c1ccc(C(=O)OC)cc1 -2.59

Just for reference, PubChem BioAssay is where these values come from.
